system: Aedes aegypti; test: Larvicidal activity against mosquito larvae at 0.005 mg/L; assay type: functional
Assign Activity to each entry below.
Write the figure, then the unit, nothing else.

query: Which Activity is reported for this molecule? CC(C)O/N=C/c1ccc(NC(=O)NC(=O)c2c(F)cccc2F)c(F)c1
result: 100%

query: Which Activity is reported for this molecule? O=C(NC(=O)c1c(F)cccc1F)Nc1ccc(/C=N/Oc2ccc(Br)cc2)cc1
result: 100%

query: Which Activity is reported for this molecule? CC(C)O/N=C/c1ccc(NC(=O)NC(=O)c2c(F)cccc2F)cc1
result: 75%

query: Which Activity is reported for this molecule? O=C(NC(=O)c1c(F)cccc1F)Nc1ccc(/C=N/Oc2ccccc2)cc1
result: 20%

query: Which Activity is reported for this molecule? CC(C)O/N=C/c1ccc(NC(=O)NC(=O)c2c(F)cccc2F)c(Cl)c1
result: 30%

query: Which Activity is reported for this molecule? CC(C)O/N=C/c1ccc(NC(=O)NC(=O)c2c(F)cccc2F)cc1Cl
result: 100%

###

Assign Activity to each entry below.
system: Aedes aegypti; test: Larvicidal activity against mosquito larvae at 0.025 mg/L; type: functional

query: Query Activity on Aedes aegypti for C/C(=N\OC(C)C)c1ccc(NC(=O)NC(=O)c2c(F)cccc2F)cc1
result: 30%

query: Query Activity on Aedes aegypti for CC(C)O/N=C(\C#N)c1ccc(NC(=O)NC(=O)c2c(F)cccc2F)cc1
result: 10%

query: Query Activity on Aedes aegypti for CC(C)C(=O)O/N=C/c1ccc(NC(=O)NC(=O)c2c(F)cccc2F)cc1
result: 0%

query: Query Activity on Aedes aegypti for Cc1cc(C)cc(C(=O)O/N=C/c2ccc(NC(=O)NC(=O)c3c(F)cccc3F)cc2)c1
result: 10%

query: Query Activity on Aedes aegypti for O=C(NC(=O)c1c(F)cccc1F)Nc1ccc(CO/N=C(/c2ccc(Cl)cc2)C2CC2)cc1
result: 15%

query: Query Activity on Aedes aegypti for O=C(NC(=O)c1c(F)cccc1F)Nc1ccc(/C=N/Oc2ccccc2)cc1
result: 100%

Cited source: ChEMBL document CHEMBL1208750
